Values compiled from paper PMC7424068.

tested on: Mtb H37Rv (ATCC27294); assay: Antimycobacterial activity, microplate Alamar blue assay (MABA); format: cell-based, Mycobacterium tuberculosis; details: Mycobacterium tuberculosis, Mtb H37Rv, repeated in Table 5 for the 3D-QSAR models; read-out: MIC
observable: MIC (µg/mL)
State the answer as a number, implicitly in µg/mL.

Examples with their reported MIC follow.
[
  {
    "compound": "Cc1ccc2c(c1)[n+]([O-])c(C1SCC(=O)N1c1ccc(F)cc1)c[n+]2[O-] (centres unmarked)",
    "systemUnderTest": "Mtb H37Rv (ATCC27294)",
    "unitOfMeasure": "µg/mL",
    "MIC": 6.25
  },
  {
    "compound": "Cc1ccc(N2C(=O)CSC2c2c[n+]([O-])c3ccc(F)cc3[n+]2[O-])cc1 (centres unmarked)",
    "systemUnderTest": "Mtb H37Rv (ATCC27294)",
    "unitOfMeasure": "µg/mL",
    "MIC": 12.5
  },
  {
    "compound": "O=C1CSC(c2c[n+]([O-])c3ccccc3[n+]2[O-])N1c1ccccc1 (centres unmarked)",
    "systemUnderTest": "Mtb H37Rv (ATCC27294)",
    "unitOfMeasure": "µg/mL",
    "MIC": 6.25
  },
  {
    "compound": "O=C1CSC(c2c[n+]([O-])c3ccccc3[n+]2[O-])N1c1ccc(Cl)cc1 (centres unmarked)",
    "systemUnderTest": "Mtb H37Rv (ATCC27294)",
    "unitOfMeasure": "µg/mL",
    "MIC": 3.13
  }
]

Could you now consider this next compound?
Notebook: pull reported MIC for Mtb H37Rv (ATCC27294), entry COc1ccc2c(c1)[n+]([O-])c(C1SCC(=O)N1c1ccc(F)cc1)c[n+]2[O-] (centres unmarked)
50

====

test system: C. neoformans (2.3201); experiment: Antifungal activity, broth microdilution; assay type: cell-based; conditions: Cryptococcus neoformans; C. neoformans 2.3201; read-out: MIC
The following molecules are shown together with reported MIC values.

[
  {
    "molecule": "O=C1CSC(c2c[n+]([O-])c3ccccc3[n+]2[O-])N1c1ccccc1 (stereo not drawn) [2a]",
    "MIC": "16 µg/mL"
  }
]

Tell me the measured MIC of Cc1ccc2c(c1)[n+]([O-])c(C1SCC(=O)N1c1ccc(F)cc1)c[n+]2[O-] (stereo not drawn) [2j] , please.
16 µg/mL

Tell me the measured MIC of Cc1ccc2c(c1)[n+]([O-])c(C1SCC(=O)N1c1ccccc1)c[n+]2[O-] (stereo not drawn) [2g] , please.
32 µg/mL

Tell me the measured MIC of COc1ccc2c(c1)[n+]([O-])c(C1SCC(=O)N1c1ccc(F)cc1)c[n+]2[O-] (stereo not drawn) [2o] , please.
32 µg/mL

Tell me the measured MIC of COc1ccc2c(c1)[n+]([O-])c(C1SCC(=O)N1c1ccc(Cl)cc1)c[n+]2[O-] (stereo not drawn) [2p] , please.
32 µg/mL

Tell me the measured MIC of COc1ccc2c(c1)[n+]([O-])c(C1SCC(=O)N1c1ccccc1)c[n+]2[O-] (stereo not drawn) [2l] , please.
> 64 µg/mL

Tell me the measured MIC of COc1ccc(N2C(=O)CSC2c2c[n+]([O-])c3ccc(OC)cc3[n+]2[O-])cc1 (stereo not drawn) [2n] , please.
> 64 µg/mL

Tell me the measured MIC of COc1ccc(N2C(=O)CSC2c2c[n+]([O-])c3ccccc3[n+]2[O-])cc1 (stereo not drawn) [2c] , please.
32 µg/mL

Tell me the measured MIC of O=C1CSC(c2c[n+]([O-])c3ccccc3[n+]2[O-])N1c1ccc(Cl)cc1 (stereo not drawn) [2e] , please.
16 µg/mL
